The reported numbers originate from patent US20120045393A1.

System: EFO-27 cells
Assay: Internalization/efflux studies in EFO-27 cells
Type: cell-based, human
Settings: 0 h, internalized
Assign Cell associated activity at 0 h % Intern to each entry below.
Give bare numbers, in %.

Worked examples follow.
{"Molecule": "N=C(N)NCCC[C@H](NC(=O)[C@@H](Cc1ccc2ccccc2c1)NC(=O)CN1CCN(CC(=O)O)CCN(CC(=O)O)CCN(CC(=O)O)CC1)C(=O)N[C@@H](Cc1c[nH]c2ccccc12)C(=O)N[C@@H](CO)C(=O)N[C@@H](Cc1c[nH]cn1)C(=O)N[C@H](CCCNC(=N)N)C(=O)N[C@@H](Cc1c[nH]c2ccccc12)C(=O)N[C@@H](Cc1ccc(C(=O)c2ccccc2)cc1)C(=O)N1CCC[C@H]1C(=O)NCCOCCN", "Observed": 14.1}
{"Molecule": "N=C(N)NCCC[C@H](NC(=O)[C@@H](Cc1ccc2ccccc2c1)NC(=O)CN1CCN(CC(=O)O)CCN(CC(=O)O)CCN(CC(=O)O)CC1)C(=O)N[C@@H](Cc1c[nH]c2ccccc12)C(=O)N[C@@H](CO)C(=O)N[C@@H](Cc1cnc[nH]1)C(=O)N[C@H](CCCNC(=N)N)C(=O)N[C@@H](Cc1c[nH]c2ccccc12)C(=O)N[C@@H](Cc1ccc(C(=O)c2ccccc2)cc1)C(=O)N1CCC[C@H]1C(=O)NNC(N)=O", "Observed": 24.1}
{"Molecule": "N=C(N)NCCC[C@@H](NC(=O)[C@H](Cc1c[nH]cn1)NC(=O)[C@H](CO)NC(=O)[C@H](Cc1c[nH]c2ccccc12)NC(=O)[C@H](Cc1c[nH]cn1)NC(=O)[C@@H](Cc1ccc2ccccc2c1)NC(=O)CN1CCN(CC(=O)O)CCN(CC(=O)O)CCN(CC(=O)O)CC1)C(=O)N[C@@H](Cc1c[nH]c2ccccc12)C(=O)N[C@@H](Cc1ccc(C(=O)c2ccccc2)cc1)C(=O)N1CCC[C@H]1C(=O)NNC(N)=O", "Observed": 43.6}

For the molecule shown here, N=C(N)NCCC[C@@H](NC(=O)[C@H](Cc1c[nH]cn1)NC(=O)[C@H](CO)NC(=O)[C@H](Cc1c[nH]c2ccccc12)NC(=O)[C@H](Cc1c[nH]cn1)NC(=O)[C@@H]1CCC(=O)N1)C(=O)N[C@@H](Cc1c[nH]c2ccccc12)C(=O)N[C@@H](Cc1ccc(O)c(I)c1)C(=O)N1CCC[C@H]1C(=O)NNC(N)=O [125I-LHRH II, Darg^6,^125I-Tyr^8,azaGly^10-LHRH-II, reference compound] , give the reported Cell associated activity at 0 h % Intern. 36.7

----------
Hi! I'm sharing some EC50 results obtained with LHRH binding sites on human ovarian cancer cells (EFO-27).
Give bare numbers, in µM.

Worked examples follow.
{"Molecule": "CN(CC(=O)N[C@@H](Cc1c[nH]cn1)C(=O)N[C@@H](Cc1c[nH]c2ccccc12)C(=O)N[C@@H](CO)C(=O)N[C@@H](Cc1c[nH]cn1)C(=O)N[C@H](CCCNC(=N)N)C(=O)N[C@@H](Cc1c[nH]c2ccccc12)C(=O)N[C@@H](Cc1ccc(C(C)(C)C)cc1)C(=O)N1CCC[C@H]1C(=O)NNC(N)=O)C(=O)CN1CCN(CC(=O)O)CCN(CC(=O)O)CCN(CC(=O)O)CC1 [BRU-2634]", "Subject of test": "LHRH binding sites on human ovarian cancer cells (EFO-27)", "Unit symbol": "µM", "EC50": 0.98}
{"Molecule": "CCNC(=O)[C@@H]1CCCN1C(=O)[C@H](Cc1ccc(C(=O)c2ccccc2)cc1)NC(=O)[C@H](Cc1c[nH]c2ccccc12)NC(=O)[C@@H](CCCNC(=N)N)NC(=O)[C@H](Cc1c[nH]cn1)NC(=O)[C@H](CO)NC(=O)[C@H](Cc1c[nH]c2ccccc12)NC(=O)[C@H](CCCNC(=N)N)NC(=O)[C@@H](Cc1ccc2ccccc2c1)NC(=O)CN1CCN(CC(=O)O)CCN(CC(=O)O)CCN(CC(=O)O)CC1 [compound 2981]", "Subject of test": "LHRH binding sites on human ovarian cancer cells (EFO-27)", "Unit symbol": "µM", "EC50": 0.97}
{"Molecule": "CNCC(=O)N[C@@H](CCCNC(=N)N)C(=O)N[C@@H](Cc1c[nH]c2ccccc12)C(=O)N[C@@H](CO)C(=O)N[C@@H](Cc1c[nH]cn1)C(=O)N[C@H](CCCNC(=N)N)C(=O)N[C@@H](Cc1c[nH]c2ccccc12)C(=O)N[C@@H](Cc1ccc(C(=O)c2ccccc2)cc1)C(=O)N1CCC[C@H]1C(=O)NCCCNC(=O)CN1CCN(CC(=O)O)CCN(CC(=O)O)CCN(CC(=O)O)CC1 [compound 3076]", "Subject of test": "LHRH binding sites on human ovarian cancer cells (EFO-27)", "Unit symbol": "µM", "EC50": 0.75}
{"Molecule": "CN(CC(=O)N[C@@H](Cc1c[nH]cn1)C(=O)N[C@@H](Cc1c[nH]c2ccccc12)C(=O)N[C@@H](CO)C(=O)N[C@@H](Cc1c[nH]cn1)C(=O)N[C@H](CCCNC(=N)N)C(=O)N[C@@H](Cc1c[nH]c2ccccc12)C(=O)NC1(C(=O)N2CCC[C@H]2C(=O)NNC(N)=O)Cc2ccccc2C1)C(=O)CN1CCN(CC(=O)O)CCN(CC(=O)O)CCN(CC(=O)O)CC1 [BRU-2764]", "Subject of test": "LHRH binding sites on human ovarian cancer cells (EFO-27)", "Unit symbol": "µM", "EC50": 4.31}

--- query ---
For the molecule shown here, CC(=O)N[C@H](Cc1ccc2ccccc2c1)C(=O)N[C@@H](CCCNC(=N)N)C(=O)N[C@@H](Cc1c[nH]c2ccccc12)C(=O)N[C@@H](CO)C(=O)N[C@@H](Cc1c[nH]cn1)C(=O)N[C@H](CCCNC(=N)N)C(=O)N[C@@H](Cc1c[nH]c2ccccc12)C(=O)N[C@@H](Cc1ccc(C(=O)c2ccccc2)cc1)C(=O)N1CCC[C@H]1C(=O)NCCOCCNC(=O)CN1CCN(CC(=O)O)CCN(CC(=O)O)CCN(CC(=O)O)CC1 [compound 2992] , give the reported EC50. 0.47
